Protocol: Differential nuclear staining
Assay type: cell-based
Condition set: human, MCF-10A non-transformed mammary epithelial cells
Observation type: CC50 at 20 h (µM)

* Clc1ccccc1C(c1ccccc1)(c1ccccc1)n1ccnc1 | 79.4
* CC(=O)N1CCN(c2ccc(OCC3COC(Cn4ccnc4)(c4ccc(Cl)cc4Cl)O3)cc2)CC1 (centres unmarked) | 37

* * *

Collected CC50 values appear next to each entry.
Tested on: 22Rv1 human prostate cancer cells
Protocol: Differential nuclear staining
Type: cell-based
Observation type: CC50 (µM)

• C[SH](C)(=O)[Ru-]([Cl])([Cl])([Cl])([Cl])[SH](C)(C)=O.[Na+] [Compound C1, Na[trans-RuCl4(DMSO)2]] = 114
• Cc1ccc(C(C)C)cc1.Cc1ccc(C(C)C)cc1.[Cl][Ru][Cl].[Cl][Ru][Cl] [Compound C3, [Ru(p-cymene)Cl2]2] = 141

* * *

Test system: YT NK-like lymphoblastic lymphoma cells
Protocol: Differential nuclear staining
Format: cell-based
Observation type: CC50 (µM)

- Cc1ccc(C(C)C)cc1.Cc1ccc(C(C)C)cc1.[Cl][Ru][Cl].[Cl][Ru][Cl] [Compound C3, [Ru(p-cymene)Cl2]2]: 164
